Tested on: HL-60(TB) leukemia
Experiment: NCI tumour cell line growth inhibition, 48 h
Kindly state TGI for each of the entries shown.

Compound	TGI
CSC1=C(C#N)C(=S)N=C(N)C1C(=O)Nc1ccc(C)cc1 (stereo unspecified)	> 100 µM
c1ccc(C(C2=Nc3cccc4cccc(c34)N2)c2ccccc2)cc1	> 100 µM
C=C1C[C@@H]2CC[C@@]34CC5O[C@H]6C(O[C@H]7CC[C@H](CC(=O)O[C@@H]8[C@@H](C)[C@@H]9O[C@@H]%10C[C@]%11(C[C@@H]%12O[C@]%13(C[C@H](C)[C@@H]%14O[C@@H]%15CC(C(O)CO)O[C@@H]%15C[C@@H]%14O%13)C[C@H](C)[C@@H]%12O%11)O[C@@H]%10C[C@@H]9O[C@H]8CC8O[C@@H](CC[C@@H]1O2)C[C@@H](C)C8(O)CO)O[C@@H]7[C@@H]6O3)[C@H]5O4 (stereo partly specified)	> 1 µM
NC(=O)C(=CNC(N)=S)C(N)=O	> 100 µM
CC(=O)C(CN(C(C)C)C(C)C)C(c1ccccc1)c1c(O)c2ccccc2oc1=O (stereo unspecified)	> 100 µM

// below: TGI requested for another compound
Entry C1=CC2(C=CC13O[C@H](C1CCCCC1)[C@@H](C1CCCCC1)O3)O[C@H](C1CCCCC1)[C@@H](C1CCCCC1)O2 : reported TGI = ?
> 50 µM
